remaining at 0.5 h for assorted compounds
- assay_protocol: Stability in human liver microsomes assessed as parent compound remaining measured after 30 mins
- Assay type: ADME, Microsome
- conditions: liver microsomes, read-out: Stabilty
assay_metric: remaining at 0.5 h (%)

>>> numeric_value("O=C(NO)c1ccc(CCCN2CCC(CN[C@H]3C[C@@H]3c3ccc(-c4ccc(C(F)(F)F)nc4)cc3)CC2)cc1 (racemic)")
79
>>> numeric_value("CN(C)CCNC(=O)c1ccc([C@H]2C[C@@H]2NCC2CCN(CCCc3ccc(C(=O)NO)cc3)CC2)cc1 (racemic)")
40
>>> numeric_value("O=C(NO)c1ccc(CCCN2CCC(CN[C@H]3C[C@@H]3c3ccc(C(=O)N4CCCCC4)cc3)CC2)cc1 (racemic)")
65
>>> numeric_value("O=C(NO)c1ccc(CCCN2CCC(CN[C@H]3C[C@@H]3c3ccc(-c4ccc(Cl)cc4)cc3)CC2)cc1 (racemic)")
77
>>> numeric_value("N#Cc1ccc(-c2ccc([C@H]3C[C@@H]3NCC3CCN(CCCc4ccc(C(=O)NO)cc4)CC3)cc2)cc1 (racemic)")
76
>>> numeric_value("O=C(NO)c1ccc(CN2CCC(CN[C@H]3C[C@@H]3c3ccccc3)CC2)cc1 (racemic)")
63
>>> numeric_value("Cn1cc(-c2ccc([C@H]3C[C@@H]3NCC3CCN(CCCc4ccc(C(=O)NO)cc4)CC3)cc2)cn1 (racemic)")
77
>>> numeric_value("O=C(NO)c1ccc(CCCN2CC(CN[C@H]3C[C@@H]3c3ccccc3)C2)cc1 (racemic)")
84

* * *

- assay_protocol: AUC (0 to t) in Balb/c mouse at 10 mg/kg, iv
- Format: ADME, organism-based
- Set-up: dose 10 mg/kg
- conditions: in vivo
assay_metric: AUC(0-t) (ng·h/mL)

>>> numeric_value("O=C(NO)c1ccc(CCCN2CCC(CN[C@H]3C[C@@H]3c3ccccc3)CC2)cc1 (racemic)")
1520

* * *

- assay_protocol: Solubility of compound
- Type: physicochemical
assay_metric: solubility (µM)

>>> numeric_value("O=C(NO)c1ccc(CCCN2CCC(CN[C@H]3C[C@@H]3c3ccccc3)CC2)cc1 (racemic)")
110

* * *

- assay_target: Lysine-specific histone demethylase 1A (Homo sapiens)
- assay_protocol: Inhibition of LSD1 (unknown origin)
- conditions: read-out: IC50
pIC50: −log10 of the molar value.
assay_metric: pIC50

>>> numeric_value("O=C(NO)c1ccc(CCCN2CCC(CN[C@H]3C[C@@H]3c3ccc(-c4ccc(F)cc4)cc3)CC2)cc1 (racemic)")
6.09
>>> numeric_value("O=C(NO)c1ccc(CCCN2CC(CN[C@H]3C[C@@H]3c3ccccc3)C2)cc1 (racemic)")
7.54
>>> numeric_value("O=C(NO)c1ccc(CCCN2CCC(CN[C@H]3C[C@@H]3c3ccc(C(=O)N4CCOCC4)cc3)CC2)cc1 (racemic)")
7.66
>>> numeric_value("COc1ccc([C@H]2C[C@@H]2NCC2CCN(CCCc3ccc(C(=O)NO)cc3)CC2)cc1 (racemic)")
8.22

* * *

- assay_protocol: Half life in Balb/c mouse at 50 mg/kg, po
- Assay type: ADME, organism-based
- conditions: in vivo
assay_metric: half-life (h)

>>> numeric_value("O=C(NO)c1ccc(CCCN2CCC(CN[C@H]3C[C@@H]3c3ccccc3)CC2)cc1 (racemic)")
2.5
